measured.on: hα7-wt nAChR (Homo sapiens)
Sequence (P36544 23-502): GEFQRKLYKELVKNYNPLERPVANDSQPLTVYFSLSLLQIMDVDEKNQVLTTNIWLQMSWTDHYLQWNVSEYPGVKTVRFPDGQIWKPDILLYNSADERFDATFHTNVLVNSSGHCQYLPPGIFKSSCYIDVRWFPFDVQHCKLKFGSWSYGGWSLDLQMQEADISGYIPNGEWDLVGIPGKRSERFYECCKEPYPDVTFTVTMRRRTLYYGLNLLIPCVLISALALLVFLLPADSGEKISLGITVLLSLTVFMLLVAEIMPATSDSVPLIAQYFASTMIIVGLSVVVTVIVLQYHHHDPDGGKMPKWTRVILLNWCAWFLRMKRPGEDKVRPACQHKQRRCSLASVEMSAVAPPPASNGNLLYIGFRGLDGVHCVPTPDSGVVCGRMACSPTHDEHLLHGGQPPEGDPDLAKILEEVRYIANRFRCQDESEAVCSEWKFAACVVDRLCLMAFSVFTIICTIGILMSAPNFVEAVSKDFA
assay.details: Ca2+ flux imaging (FDSS) (Protocol B), potentiation of the choline response
measurement.context: Ca2+ assay as described in D.1; "<5" = activity did not reach a top plateau at maximal concentration
result.type: pEC50
Note on units: pEC50 is unitless, being -log10 of a concentration expressed in mol/L.

Solved entries:
INSERT INTO results (molecule, measured_on, observed_value) VALUES
  ('CNC(=O)Cn1nc(Nc2cccc(OC(F)(F)F)c2)cc1-c1ccnc(C)c1', 'hα7-wt nAChR (Homo sapiens)', 5.61),
  ('CC[C@H](O)Cn1nc(Nc2cc(F)cc(F)c2)cc1-c1ccnc(COC)c1', 'hα7-wt nAChR (Homo sapiens)', 5.86);

Specify the recorded pEC50 for `Cc1cnccc1-c1cc(Nc2ccc3c(c2)OC(F)(F)O3)nn1CCC(=O)N(C)C` , system: hα7-wt nAChR (Homo sapiens).
6.04

Specify the recorded pEC50 for `Cc1cc(-c2cc(Nc3ccc(F)c(C(F)(F)F)c3)nn2C[C@H](C)O)cc(N(C)C)n1` , system: hα7-wt nAChR (Homo sapiens).
6.10
